Molecular target: T. aquaticus aminopeptidase T (Thermus aquaticus, UniProt P23341)
Construct: 6xHis (C); made in house; host or cells: E. coli BL21(DE3), pET24b(+)
Sequence (P23341 with tags, fused parts or gaps): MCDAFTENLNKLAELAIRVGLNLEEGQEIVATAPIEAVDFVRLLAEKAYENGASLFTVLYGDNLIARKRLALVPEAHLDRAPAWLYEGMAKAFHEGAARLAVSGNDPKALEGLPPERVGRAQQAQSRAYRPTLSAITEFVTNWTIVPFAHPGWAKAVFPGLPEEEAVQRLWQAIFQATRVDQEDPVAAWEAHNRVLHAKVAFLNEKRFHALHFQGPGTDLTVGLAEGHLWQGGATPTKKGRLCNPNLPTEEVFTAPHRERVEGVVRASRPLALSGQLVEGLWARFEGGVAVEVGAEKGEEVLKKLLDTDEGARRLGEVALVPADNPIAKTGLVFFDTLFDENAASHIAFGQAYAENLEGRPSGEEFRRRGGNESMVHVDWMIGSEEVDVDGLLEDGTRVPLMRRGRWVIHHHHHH
Assay type: biochemical
Conditions: 40° C.; calculated as 1/kcat
Classify: label 1 when on-time (min) is strictly less than 5 min; label 0 when on-time (min) is not.

These solved cases illustrate the format of a correct answer.
{"COMPOUND": "NCC(=O)Nc1ccc([N+](=O)[O-])cc1", "MEASURED TARGET": "T. aquaticus aminopeptidase T (Thermus aquaticus, UniProt P23341)", "CLASS": "label 0"}
{"COMPOUND": "C[C@H](N)C(=O)Nc1ccc([N+](=O)[O-])cc1", "MEASURED TARGET": "T. aquaticus aminopeptidase T (Thermus aquaticus, UniProt P23341)", "CLASS": "label 1"}
{"COMPOUND": "CC(C)[C@H](N)C(=O)Nc1ccc([N+](=O)[O-])cc1", "MEASURED TARGET": "T. aquaticus aminopeptidase T (Thermus aquaticus, UniProt P23341)", "CLASS": "label 0"}
{"COMPOUND": "CC(C)C[C@H](N)C(=O)Nc1ccc([N+](=O)[O-])cc1 [Leu, L-leucine-p-nitroanilide]", "MEASURED TARGET": "T. aquaticus aminopeptidase T (Thermus aquaticus, UniProt P23341)", "CLASS": "label 0"}
{"COMPOUND": "NCCCC[C@H](N)C(=O)Nc1ccc([N+](=O)[O-])cc1", "MEASURED TARGET": "T. aquaticus aminopeptidase T (Thermus aquaticus, UniProt P23341)", "CLASS": "label 0"}
{"COMPOUND": "CSCC[C@H](N)C(=O)Nc1ccc([N+](=O)[O-])cc1", "MEASURED TARGET": "T. aquaticus aminopeptidase T (Thermus aquaticus, UniProt P23341)", "CLASS": "label 1"}

[ask] Bench note: check whether "N[C@@H](Cc1ccc(O)cc1)C(=O)Nc1ccc([N+](=O)[O-])cc1" shows on-time (min) below 5 min
[reply] label 1

[ask] Bench note: check whether "NC(N)=NCCC[C@H](N)C(=O)Nc1ccc([N+](=O)[O-])cc1" shows on-time (min) below 5 min
[reply] label 1

[ask] Bench note: check whether "O=C(Nc1ccc([N+](=O)[O-])cc1)[C@@H]1CCCN1" shows on-time (min) below 5 min
[reply] label 0

Value source: patent US12422438B2
